Item-by-item account of KIRA:~ EC50
target: c-Ret (RET receptor tyrosine kinase) on NB41A3-mRL3 cells (UniProt P35546 29-1115, limits assumed); test: cell-based or functional assay
Sequence (P35546 29-1115 limits assumed): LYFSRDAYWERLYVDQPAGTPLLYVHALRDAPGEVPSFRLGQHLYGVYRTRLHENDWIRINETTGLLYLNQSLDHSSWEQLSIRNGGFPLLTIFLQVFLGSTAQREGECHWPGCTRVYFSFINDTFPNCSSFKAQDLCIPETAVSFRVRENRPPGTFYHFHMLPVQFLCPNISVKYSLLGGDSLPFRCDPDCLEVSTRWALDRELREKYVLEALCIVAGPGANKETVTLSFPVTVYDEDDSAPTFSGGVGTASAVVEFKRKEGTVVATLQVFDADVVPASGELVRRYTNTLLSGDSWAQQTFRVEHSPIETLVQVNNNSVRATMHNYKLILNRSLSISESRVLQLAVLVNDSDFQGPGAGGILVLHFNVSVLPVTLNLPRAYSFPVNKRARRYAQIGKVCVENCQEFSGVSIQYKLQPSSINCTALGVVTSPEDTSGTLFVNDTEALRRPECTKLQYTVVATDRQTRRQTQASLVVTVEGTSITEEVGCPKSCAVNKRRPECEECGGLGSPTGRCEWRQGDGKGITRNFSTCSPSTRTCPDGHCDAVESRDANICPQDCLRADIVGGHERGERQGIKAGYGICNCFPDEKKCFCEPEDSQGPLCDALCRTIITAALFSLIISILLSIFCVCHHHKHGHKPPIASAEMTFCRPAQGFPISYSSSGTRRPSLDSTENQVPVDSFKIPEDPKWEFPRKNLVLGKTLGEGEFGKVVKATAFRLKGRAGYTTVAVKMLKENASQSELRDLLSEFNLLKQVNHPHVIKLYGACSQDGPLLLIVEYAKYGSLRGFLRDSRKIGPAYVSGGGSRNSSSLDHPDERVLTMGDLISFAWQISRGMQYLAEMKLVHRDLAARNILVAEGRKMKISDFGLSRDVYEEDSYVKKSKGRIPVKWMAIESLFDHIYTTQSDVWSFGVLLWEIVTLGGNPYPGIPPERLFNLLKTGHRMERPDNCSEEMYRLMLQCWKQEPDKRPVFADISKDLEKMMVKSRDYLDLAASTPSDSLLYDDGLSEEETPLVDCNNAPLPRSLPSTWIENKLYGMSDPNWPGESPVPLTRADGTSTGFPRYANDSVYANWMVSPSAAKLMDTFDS

Previously resolved entries follow.
Dear colleague, please send me the reported KIRA:~ EC50 for 4 × 10 kDa PEG NBN106-N95K (ligand, 10 kDa PEG on the amino terminus and on Lys95 of each chain (Table 8: 1, 1, 95, 95)) ARATDARGCRLRSQLVPVSALGLGHSSDELIRFRFCSGSCRRARSPHDLSLASLLGAGALRSPPGSRPISQPCCRPTRYEAVSFMDVKSTWRTVDHLSATACGCLG when you can. ~11 nM

Write down KIRA:~ EC50 measured for item 3 × 10 kDa PEG-WT/N95K-NBN106 (ligand, 10 kDa PEG on the amino terminus and on Lys95 (Table 8, for the dimer: 1, 1, 95); 10 kDa PEG on the amino terminus (Table 8, for the dimer: 1, 1, 95)) chain 1: ARATDARGCRLRSQLVPVSALGLGHSSDELIRFRFCSGSCRRARSPHDLSLASLLGAGALRSPPGSRPISQPCCRPTRYEAVSFMDVNSTWRTVDHLSATACGCLG chain 2: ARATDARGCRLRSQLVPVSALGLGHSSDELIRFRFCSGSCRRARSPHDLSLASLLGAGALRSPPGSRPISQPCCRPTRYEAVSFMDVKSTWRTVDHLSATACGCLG ~0.7 nM

Determine from records and report KIRA:~ EC50 for 1 × 20 kDa Branched PEG-NBN (ligand, one 20 kDa branched PEG on the amino-terminal amino acid of one of the two chains (Table 8: 1)) AGTRSSRARATDARGCRLRSQLVPVSALGLGHSSDELIRFRFCSGSCRRARSPHDLSLASLLGAGALRSPPGSRPISQPCCRPTRYEAVSFMDVNSTWRTVDHLSATACGCLG ~0.2 nM

Please report KIRA:~ EC50 for the following binder: 2 × 5 kDa PEG-NBN (ligand, 5 kDa PEG on the amino-terminal amino acid of each chain (Table 8: PEGylated amino acids 1, 1)) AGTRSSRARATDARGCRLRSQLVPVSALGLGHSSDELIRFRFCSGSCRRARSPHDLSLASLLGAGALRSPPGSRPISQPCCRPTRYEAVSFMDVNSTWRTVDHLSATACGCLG ~0.2 nM

Give recorded KIRA:~ EC50. 3 × 10 kDa PEG NBN106-N95K (ligand, three 10 kDa PEG per dimer: both amino termini and one Lys95 (Table 8: 1, 1, 95)) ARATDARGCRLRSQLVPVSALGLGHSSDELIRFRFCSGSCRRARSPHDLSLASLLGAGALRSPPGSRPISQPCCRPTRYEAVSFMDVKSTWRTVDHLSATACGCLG ~0.8 nM

Proceeding to the next binder to report its KIRA:~ EC50.
Name the recorded KIRA:~ EC50 of the item 2 × 20 kDa PEG-NBN (ligand, 20 kDa PEG on the amino-terminal amino acid of each chain (Table 8: 1, 1)) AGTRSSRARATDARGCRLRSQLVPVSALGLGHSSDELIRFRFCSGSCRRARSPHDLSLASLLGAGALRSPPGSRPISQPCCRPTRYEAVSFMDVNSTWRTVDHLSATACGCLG in your answer. ~0.6 nM
